- TEST_TARGET: bacterial NAD synthetase enzyme (Bacillus subtilis)
- Sequence (P08164 2-272 limits assumed): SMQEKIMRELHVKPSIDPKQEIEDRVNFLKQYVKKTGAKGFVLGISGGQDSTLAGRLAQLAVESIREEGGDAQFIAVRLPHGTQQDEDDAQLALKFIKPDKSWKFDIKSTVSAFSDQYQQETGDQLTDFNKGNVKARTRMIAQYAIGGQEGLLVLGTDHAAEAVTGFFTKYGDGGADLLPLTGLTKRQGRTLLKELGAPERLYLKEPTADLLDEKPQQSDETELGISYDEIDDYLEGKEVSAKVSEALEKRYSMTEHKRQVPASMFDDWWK
- MEASUREMENT_PROTOCOL: biochemical
- Format: biochemical
- ASSAY_CONTEXT: compound at 0.2 mM (Table 312A)
Simple rule here: % Inhibition less than 20% is Yes, otherwise No.

O=C(OCCCCCCCc1cc2ccc(C(F)(F)F)cc2[nH]1)c1ccncc1	Yes

Strictly below 20% in % Inhibition? "c1ccc2[nH]c(CCCCCCC[n+]3cccc4ccccc43)cc2c1"
Yes

Strictly below 20% in % Inhibition? "CC(=O)c1ccc2[nH]c(CCCC[n+]3ccccc3)cc2c1"
Yes

Strictly below 20% in % Inhibition? "Cc1ccc2[nH]c(CCCCCCCC[n+]3cccc4ccccc43)cc2c1"
No

Strictly below 20% in % Inhibition? "c1ccc(Oc2ccc3[nH]c(CCC[n+]4ccccc4)cc3c2)cc1"
No

Strictly below 20% in % Inhibition? "Fc1ccc2[nH]c(CCCCCCCC[n+]3ccc4ccccc4c3)cc2c1"
No

====

- TEST_TARGET: bacterial NAD synthetase enzyme (Bacillus subtilis)
- Sequence (P08164 2-272 limits assumed): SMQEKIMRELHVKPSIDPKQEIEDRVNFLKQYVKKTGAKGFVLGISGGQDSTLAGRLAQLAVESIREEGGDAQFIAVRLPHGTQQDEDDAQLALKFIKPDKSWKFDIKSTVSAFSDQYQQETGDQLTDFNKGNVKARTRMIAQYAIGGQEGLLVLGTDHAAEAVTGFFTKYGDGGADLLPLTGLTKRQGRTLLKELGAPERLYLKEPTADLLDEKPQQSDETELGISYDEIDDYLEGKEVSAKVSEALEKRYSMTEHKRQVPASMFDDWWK
- MEASUREMENT_PROTOCOL: biochemical
- Type: biochemical
- ASSAY_CONTEXT: compound at 0.2 mM (Table 312A)
Simple rule here: % Inhibition less than 40% is label 1, otherwise label 0.

CC(C)c1ccc2[nH]c(CCC[n+]3ccccc3)cc2c1	label 1
Cc1ccc2[nH]c(CCCC[n+]3cccc4ccccc43)cc2c1	label 1
c1ccc(-c2ccc3[nH]c(CCC[n+]4ccccc4)cc3c2)cc1	label 1
FC(F)(F)c1ccc2[nH]c(CCCCCC[n+]3ccccc3)cc2c1	label 0
C[n+]1cccc(C(=O)OCCCCCCn2ccc3cc([N+](=O)[O-])ccc32)c1	label 0
O=C(c1ccccc1)c1ccc2[nH]c(CCCCCCCC[n+]3ccc4ccccc4c3)cc2c1	label 0
Cc1ccc2[nH]c(CCC[n+]3ccc4ccccc4c3)cc2c1	label 1
O=[N+]([O-])c1cc([N+](=O)[O-])c2[nH]c(CCC[n+]3ccc4ccccc4c3)cc2c1	label 1

Strictly below 40% in % Inhibition? "O=[N+]([O-])c1ccc2[nH]c(CCCCCCCC[n+]3ccc4ccccc4c3)cc2c1"
label 0

Strictly below 40% in % Inhibition? "CC(C)c1ccc2[nH]c(CCCCCCCC[n+]3cccc4ccccc43)cc2c1"
label 1

Strictly below 40% in % Inhibition? "CCCCc1ccc2[nH]c(CCCCCC[n+]3cccc4ccccc43)cc2c1"
label 1

Strictly below 40% in % Inhibition? "COc1ccc2c(ccn2CCCCCOC(=O)Cc2ccc([N+](C)(C)C)cc2)c1"
label 1

Strictly below 40% in % Inhibition? "CC(C)c1ccc2[nH]c(CCCCCCCC[n+]3ccccc3)cc2c1"
label 1

Strictly below 40% in % Inhibition? "c1ccc(Oc2ccc3[nH]c(CCCCCC[n+]4ccccc4)cc3c2)cc1"
label 0

Strictly below 40% in % Inhibition? "CC(=O)c1ccc2[nH]c(CCCCCCC[n+]3ccccc3)cc2c1"
label 0

Strictly below 40% in % Inhibition? "O=C(O)c1ccc2[nH]c(CCCC[n+]3cccc4ccccc43)cc2c1"
label 1

Strictly below 40% in % Inhibition? "O=[N+]([O-])c1ccc2[nH]c(CCC[n+]3ccccc3)cc2c1"
label 1

Strictly below 40% in % Inhibition? "Fc1ccc2[nH]c(CCCC[n+]3ccc4ccccc4c3)cc2c1"
label 1
